Test readout: melting point

In: Given the compound CC(c1ccc(C(F)(F)F)cc1)S(C)(=O)=NC(N)=S (stereo not shown) , what is its reported melting point?
Out: 166 to 168 °C

In: Given the compound CC(c1ccc(C(F)(F)F)cc1)S(C)(=O)=NC(=S)NC(=O)OCC1c2ccccc2-c2ccccc21 (stereo not shown) , what is its reported melting point?
Out: 86 to 93 °C

In: Given the compound CS(=O)(=NC(=O)Nc1ccc(C(F)(F)F)cc1)c1ccc(Cl)cc1 (stereo not shown) , what is its reported melting point?
Out: 131 to 134 °C

In: Given the compound CC(c1ccc(C(F)(F)F)nc1)S(C)(=O)=NC(=S)NC(=O)OCC1c2ccccc2-c2ccccc21 (stereo not shown) , what is its reported melting point?
Out: 105 to 107 °C

In: Given the compound CC(c1ccc(C(F)(F)F)nc1)S(C)(=O)=N/C(N)=N/O (stereo not shown) , what is its reported melting point?
Out: 157 to 159 °C

In: Given the compound CC(C)NC(=S)N=S(C)(=O)C(C)c1ccc(C(F)(F)F)nc1 (stereo not shown) , what is its reported melting point?
Out: 153 to 155 °C

In: Given the compound Cc1ccc(C(C)S(C)(=O)=NC(N)=S)cn1 (stereo not shown) , what is its reported melting point?
Out: 137 to 140 °C

In: Given the compound NC(=S)N=S1(=O)CCCC1c1ccc(Cl)nc1 (stereo not shown) , what is its reported melting point?
Out: 168 to 172 °C

In: Given the compound CC(c1ccc(C(F)(F)F)nc1)S(C)(=O)=NC(=S)NC1CCCCC1 (stereo not shown) , what is its reported melting point?
Out: 170 to 172 °C

In: Given the compound CS(=O)(Cc1ccc(Cl)nc1)=NC(=S)NC(=O)OCC1c2ccccc2-c2ccccc21 (stereo not shown) , what is its reported melting point?
Out: 98 to 101 °C

In: Given the compound CC(c1ccc(C(F)(F)F)nc1)S(C)(=O)=NC(=S)Nc1ccc(OC(F)(F)F)cc1 (stereo not shown) , what is its reported melting point?
Out: 149 to 151 °C

In: Given the compound CS(=O)(Cc1ccc(Cl)nc1)=N/C(N)=N/O (stereo not shown) , what is its reported melting point?
Out: 156 to 158 °C

In: Given the compound CC(c1ccc(C(F)(F)F)nc1)S(C)(=O)=NC(N)=S (stereo not shown) , what is its reported melting point?
Out: 145 to 147 °C

In: Given the compound CC(c1ccc(C(F)(F)F)nc1)S(C)(=O)=NC(=S)Nc1ccc(Cl)cc1 (stereo not shown) , what is its reported melting point?
Out: 181 to 183 °C

In: Given the compound CC(c1ccc(C(F)(F)F)nc1)S(C)(=O)=NC(=S)NC1CC1 (stereo not shown) , what is its reported melting point?
Out: 154 to 156 °C

In: Given the compound COc1ccc(NC(=S)N=S(C)(=O)C(C)c2ccc(C(F)(F)F)nc2)cc1 (stereo not shown) , what is its reported melting point?
Out: 167 to 169 °C

In: Given the compound CS(=O)(Cc1ccc(C(F)(F)F)nc1)=NC(=S)NC(=O)OCC1c2ccccc2-c2ccccc21 (stereo not shown) , what is its reported melting point?
Out: 92 to 97 °C

In: Given the compound COC(=O)CCC(=O)NC(=S)N=S(C)(=O)C(C)c1ccc(C(F)(F)F)nc1 (stereo not shown) , what is its reported melting point?
Out: 131 to 133 °C

In: Given the compound CS(=O)(Cc1ccc(Cl)nc1)=NC(N)=S (stereo not shown) , what is its reported melting point?
Out: 155 to 158 °C
